# log10(EC50) per entry
assay system: SARS-CoV-1 S protein expressed on ExpiCHO cells (SARS-CoV-1, UniProt P59594 14-1255)
assay info: flow
All values: log10 EC50 [µg/mL].

SARS-CoV-2 S315 mAb (antibody, V domains shown) VH: EVQLVESGGGLVQPGGSLRLSCAASGFTFSNYWMTWVRQAPGKGLEWVANIKQDGSEKYYVDSVKGRFTISRDNAKNSLYLQMNSLRAEDTAVYYCARDLWWNDQAHYYGMDVWGQGTTVTVSS VL: SYELTQPPSVSVSPGQTARITCSGDAFPNQYAYWYQQKPGQAPVMLIYKDSERPSGIPERFFGSSSGTTVTLTIRGVQAEDEADYYCQSADSSGTVFGGGTKLTVL = -2.12
SARS-CoV-2 S310 mAb (antibody, V domains shown) VH: QVQLVQSGAELKKPGSSVKVSCKASGGTFNSYSFNWVRQAPGQGLEWLGGIIPVLGTSNYAQKFQGRVAVTADEFTTTAYMELSSLRSEDTAVYYCATRTYDSSGYRPYYYGLDVWGQGTPVTVSS VL: QSALTQPASVSGSPGQSITISCTGTSSDVGSYNLVSWYQQRPGKAPELMIYEVTKRPSGLSNRFSGSKSGNTASLTISGLQAEDEADYYCCSYAGSDTVIFGGGTKVTVL = -0.60
SARS-CoV-2 S303 mAb (antibody, V domains shown) VH: EVQLVESGGGLVKPGGSLRLSCAASGFTFLTYSMNWVRQTPGKRLQWVSAISGSGGATYYADSVKGRFTISRDNSKNTLYLQMNTVTADDTAIYFCARERDDIFPMGLNAFDIWGQGAMVIVSS VL: DIQMTQSPSTLSASVGDRVTITCRASQSISNWLAWYQQKPGKAPKLLIYKASSLESGVPSRFSGSGSGTEFTLTISSLQPDDSATYYCQQYDTYSWTFGQGTKVEIK = -2.97
SARS-CoV-2 S306 mAb (antibody, V domains shown) VH: QVQLVQSGAEVKKPGASVKVSCKASTYTFTSFGISWVRQAPGQGLEWMGWITTYSGDTNYAQKFQGRVTMTTDTSTNTAYMELRSLRSDDTAVYYCASDYFDSSGYYHSFDYWGQGTLVTVSS VL: EIVLTQSPDTLSLSPGERATLSCRASQSVSSYLAWYQQRPGQAPRLLIYDASKRATGIPARFSGSGSGTDFTLTISSLEPEDFAVYYCQQRSNWPPGCSFGQGTKVEIK = -1.68

From here, focus on the item given below.
Provide only the value of recorded log10(EC50) for SARS-CoV-2 S304 mAb (antibody, V domains shown) VH: EVQLVESGGGLVQPGGSLRLSCAASGFTFSSYDMHWVRQTTGKGLEWVSTIGTAGDTYYPDSVKGRFTISREDAKNSLYLQMNSLRAGDTAVYYCARGDSSGYYYYFDYWGQGTLLTVSS VL: DIQMTQSPSSLSAAVGDRVTITCRASQSIGSYLNWYQQKPGKAPKLLIYAASSLQSGVPSRFSGSGSGTDFTLTISSLQPEDFAIYYCQQSYVSPTYTFGPGTKVDIK
-1.94

Hey, just so you know, these numbers are from patent US20210261650A1.
